Test: pharmacokinetic pilot, continuous infusion in one animal
Assay type: in vivo, pig
Details: pig, whole blood, intravenous, 0.1 mg/kg/h, time 5 minutes, read-out: Conc in blood 950
Procedure: One animal served as a pharmacokinetic pilot, with arterial and venous catheters placed in a cut-down in the neck. The remaining 21 animals were used for the randomized study (Figure 1). After intubation and start of mechanical ventilation, a second auricular vein cannula was placed and infusion of either AEPU or placebo according to randomization was started. After 2 h of infusion of AEPU or placebo, an infusion of LPS was started. […]

# COMPOUND, concentration at 5 min (ng/mL)
records = [
    ("CCOCCOCCOCCCCCNC(=O)NC12CC3CC(CC(C3)C1)C2 [Compound 950]", 45),
]
